Each record here notes measured Intrinsic activity.
Target: Melatonin receptor type 1B (Homo sapiens) (UniProt P49286)
Experiment: Intrinsic activity at human cloned MT2 receptor expressed in mouse NIH-3T3 cells assessed as stimulation of [35S]GTPgammaS binding relative to melatonin
Format: functional, cell-based
Settings: NIH3T3
ENDPOINT LABEL: Intrinsic activity

# SMI, RESULT
rows = [
    ("CC(=O)NCCN(C)c1cccc(OCCCCOc2cccc(N(C)CCNC(C)=O)c2)c1", 0.18),
    ("CC(=O)NCCN(C)c1cccc(OCCCCCCCCCCOc2cccc(N(C)CCNC(C)=O)c2)c1", 0.57),
    ("COc1cccc(N(CCNC(C)=O)C(=O)CCCCC(=O)N(CCNC(C)=O)c2cccc(OC)c2)c1", 0.91),
    ("CC(=O)NCCN(C)c1cccc(OCCCCCCCCOc2cccc(N(C)CCNC(C)=O)c2)c1", 0.38),
    ("CC(=O)NCCN(C)c1cccc(OCCCCCCOc2cccc(N(C)CCNC(C)=O)c2)c1", 0.33),
]

###

Target: UniProt:P49286
Sequence (P49286 whole entry): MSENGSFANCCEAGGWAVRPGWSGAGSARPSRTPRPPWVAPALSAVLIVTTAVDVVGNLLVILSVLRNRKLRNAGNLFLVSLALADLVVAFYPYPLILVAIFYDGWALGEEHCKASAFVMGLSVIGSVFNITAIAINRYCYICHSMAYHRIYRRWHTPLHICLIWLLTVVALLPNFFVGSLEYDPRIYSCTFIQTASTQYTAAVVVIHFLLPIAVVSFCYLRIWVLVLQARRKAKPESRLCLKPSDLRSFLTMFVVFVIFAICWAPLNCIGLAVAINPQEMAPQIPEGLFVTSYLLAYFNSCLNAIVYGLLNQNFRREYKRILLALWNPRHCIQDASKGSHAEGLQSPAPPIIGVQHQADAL
pKi: −log10 of the molar value.
Consider the following compounds and their measured pKi readings.

# SMI, pKi
data = [
    ("CC(=O)NCCN(C)c1cccc(OCCCCCCOc2cccc(N(C)CCNC(C)=O)c2)c1", 6.74),
    ("COc1cccc(N(CCNC(C)=O)C(=O)CCCCC(=O)N(CCNC(C)=O)c2cccc(OC)c2)c1", 6.61),
    ("COc1cccc(N(CCCCCCN(CCNC(C)=O)c2cccc(OC)c2)CCNC(C)=O)c1", 7.44),
    ("CC(=O)NCCN(C)c1cccc(OCCCCCCCCCCOc2cccc(N(C)CCNC(C)=O)c2)c1", 7.39),
    ("CC(=O)NCCN(C)c1cccc(OCCCOc2cccc(N(C)CCNC(C)=O)c2)c1", 5.68),
]

###

Organism: Homo sapiens
Experiment: Selectivity index, ratio of Ki for human cloned MT2 receptor to Ki for human cloned MT1 receptor
Threshold rule: Ratio Ki greater than or equal to 10 is True; below that, False.

# SMI, LABEL CLASS
data = [
    ("COc1cccc(N(CCCCCCCCCCN(CCNC(C)=O)c2cccc(OC)c2)CCNC(C)=O)c1", "False"),
    ("COc1cccc(N(CCNC(C)=O)C(=O)CCCCC(=O)N(CCNC(C)=O)c2cccc(OC)c2)c1", "False"),
    ("CC(=O)NCCN(C)c1cccc(OCCCCCCOc2cccc(N(C)CCNC(C)=O)c2)c1", "True"),
    ("CC(=O)NCCN(C)c1cccc(OCCCCOc2cccc(N(C)CCNC(C)=O)c2)c1", "True"),
    ("COc1cccc(N(CCCCCCN(CCNC(C)=O)c2cccc(OC)c2)CCNC(C)=O)c1", "False"),
    ("CC(=O)NCCN(C)c1cccc(OCCCOc2cccc(N(C)CCNC(C)=O)c2)c1", "True"),
    ("CC(=O)NCCN(C)c1cccc(OCCCCCCCCOc2cccc(N(C)CCNC(C)=O)c2)c1", "False"),
    ("CC(=O)NCCN(C)c1cccc(OCCCCCOc2cccc(N(C)CCNC(C)=O)c2)c1", "True"),
    ("CC(=O)NCCN(C)c1cccc(OCCCCCCOc2ccccc2)c1", "True"),
]
